# target_of_assay: PH-domain of CNKSR1 (Homo sapiens)
# Construct: The PH-domain His-fusion proteins (CNK1 and AKT1) were expressed and immobilized on a NTA chip; made in house
# Sequence (Q969H4 403-502 limits assumed): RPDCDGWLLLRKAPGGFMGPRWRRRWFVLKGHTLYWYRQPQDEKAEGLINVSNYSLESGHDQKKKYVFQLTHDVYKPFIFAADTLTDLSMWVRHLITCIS
# assay_notes: Surface plasmon resonance binding to CNK PH-domain
# study_conditions: SPR; ND = no binding determined; read-out: CNK KD
pKd: −log10 of the molar value.
quantity_name: pKd

molecule | quantity_name | observed_value
CCOC(=O)CCc1cc(NS(=O)(=O)c2cccs2)c2c(c1OC)OCO2 | pKd | < 3.30

* * *

Measured IC50 by item
# Tested on: wt-KRAS cells
# assay_notes: Proliferation assay, wt-KRAS cell lines
# Assay type: cell-based
# study_conditions: read-out: Ave IC50 wt-KRAS
quantity_name: IC50 (µM)

molecule | target_of_assay | observed_value
COc1c(/C=C/C(=O)NCC(C)O)c(NS(=O)(=O)c2cccs2)cc2c1OCO2 (stereo not shown) [Compound 112] | wt-KRAS cells | 100
COc1c(/C=C/C(=O)N2CCN(C)CC2)c(NS(=O)(=O)c2cccs2)cc2c1OCO2 [Compound 111] | wt-KRAS cells | 33.7
CCOC(=O)/C=C/c1c(NS(=O)(=O)c2cccs2)cc2c(c1OC)OCCO2 [Compound 113] | wt-KRAS cells | 100
COc1c(/C=C/C(=O)NCc2ccco2)c(NS(=O)(=O)c2cccs2)cc2c1OCO2 [Compound 108] | wt-KRAS cells | 100
CCNC(=O)/C=C/c1c(NS(=O)(=O)c2cccs2)cc2c(c1OC)OCO2 [Compound 105] | wt-KRAS cells | 100
COc1c(/C=C/CO)c(NS(=O)(=O)c2cccs2)cc2c1OCCO2 [Compound 115] | wt-KRAS cells | 100
COc1c(/C=C/C(N)=O)c(NS(=O)(=O)c2cccs2)cc2c1OCO2 [Compound 107] | wt-KRAS cells | 100
COc1c(/C=C/C(=O)O)c(NS(=O)(=O)c2cccs2)cc2c1OCCO2 [Compound 114] | wt-KRAS cells | 100
CNC(=O)/C=C/c1c(NS(=O)(=O)c2cccs2)cc2c(c1OC)OCO2 [Compound 106] | wt-KRAS cells | 68
COc1c(/C=C/C(=O)N2CCOCC2)c(NS(=O)(=O)c2cccs2)cc2c1OCO2 [Compound 109] | wt-KRAS cells | 100

* * *

Overview of reported Kd across a group of compounds:
# target_of_assay: AKT1 PH-domain (Homo sapiens, UniProt P31749)
# Construct: The PH-domain His-fusion proteins (CNK1 and AKT1) were expressed and immobilized on a NTA chip
# Sequence (P31749 5-108 limits assumed): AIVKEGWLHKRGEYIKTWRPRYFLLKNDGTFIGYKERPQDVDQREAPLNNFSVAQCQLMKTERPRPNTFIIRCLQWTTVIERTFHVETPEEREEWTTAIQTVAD
# assay_notes: Surface plasmon resonance binding to AKT PH-domain
# study_conditions: SPR; ND = no binding determined
quantity_name: Kd

molecule | observed_value
CCOC(=O)CCc1cc(NS(=O)(=O)c2cccs2)c2c(c1OC)OCO2 | > 500 µM
CCOC(=O)/C=C/c1cc(NS(=O)(=O)c2cccs2)c2c(c1OC)OCO2 | > 500 µM

* * *

Measured pIC50, listed per entry.
# Tested on: mut-KRAS cells
# assay_notes: Proliferation assay, mut-KRAS cell lines
# Assay type: cell-based
# study_conditions: read-out: Ave IC50 mut-KRAS
pIC50: −log10 of the molar value.

compound | pIC50
COc1c(/C=C/C(=O)N2CCN(C)CC2)c(NS(=O)(=O)c2cccs2)cc2c1OCO2 | 5.39
COc1c(/C=C/C(N)=O)c(NS(=O)(=O)c2cccs2)cc2c1OCO2 | 5.82
CNC(=O)/C=C/c1c(NS(=O)(=O)c2cccs2)cc2c(c1OC)OCO2 | 5.08
CCOC(=O)/C=C/c1c(NS(=O)(=O)c2cccs2)cc2c(c1OC)OCCO2 | 4.26
COc1c(/C=C/C(=O)N2CCOCC2)c(NS(=O)(=O)c2cccs2)cc2c1OCO2 | 5.19
COc1c(/C=C/C(=O)NCC(C)O)c(NS(=O)(=O)c2cccs2)cc2c1OCO2 (stereo not drawn) | 4.60
